B1: TPR t1 (parent)
chain: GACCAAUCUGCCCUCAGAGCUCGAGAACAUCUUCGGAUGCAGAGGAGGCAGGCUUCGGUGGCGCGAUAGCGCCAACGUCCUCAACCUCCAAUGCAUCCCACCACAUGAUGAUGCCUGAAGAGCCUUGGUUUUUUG

Variants of: B1
Assay: polymerase ribozyme fitness, log enrichment relative to wild type (log ratio); higher = more active; in vitro selection for triplet polymerase activity

- query.sequence: "GACCAAUCUGGCCUCAGAGCUCGAGAACAUCUUCGUAUGCAGAGGAUGCAGGCUUCGGUGGCACGAUAGCGCCAACGGCCUCAACCUCCAAUGCAUCCCACCACAUGAUGAUGCCUGAAGAGCCUUGGUUUUUUG [C11G G36U G47U G63A U78G]"
  polymerase ribozyme fitness (log ratio): -2.93
- query.sequence: "GACCAAUCUGGCCUCAGAGCUCGAGAACAUCUUCGGAUGCAGAGGAGGCAGGCUUCGGUGGCGCGAUAGCGCCAACGUCCUCAACCUCCAAUGCAUCCCACCACAUGAUGAUGCCUGAAGAGCCUUGGUUUUUUG [C11G]"
  polymerase ribozyme fitness (log ratio): 0.294
- query.sequence: "GACCAAUCUGCCCUCAGAGCUCGAGAACAUCUUCGGAUGCAGAGGAGGCAGGCUUCGGUGGCGCGAUAGCACCAACGUCCUCAACCUCCAACGCAUCCCACCACAUGAUGAUGCCUGAAGAGCCUUGGUUUUUUG [G71A U92C]"
  polymerase ribozyme fitness (log ratio): -2.39
- query.sequence: "GACCAAUCUGCCCUCAGAGCUCUAGAACAUCUUCGGAUGCAAAGGUGGCAGGCUUCGGUGGCGCGAUAUCGCCAACGUCCUCAACCUCCAAUGCAUCCCACCACAUGAAGAUGCCUGAAGAGUCUUGGUUUUUUG [G23U G42A A46U G69U U109A C123U]"
  polymerase ribozyme fitness (log ratio): -5.99
- query.sequence: "GACCAAUCUGGCCUCAGAGCUCGAGAACAUCUUCGGAUGCAGAGGAGGCAGGCUUCGGUGGCGCGAUAGCGCCAACGUCCUCAACCUCCAAUGCAUCCCACCACAUGAUGAUGCCUGAACAGCCUUGGUUUUUUG [C11G G120C]"
  polymerase ribozyme fitness (log ratio): 1.89
- query.sequence: "GACCAAUCUGCCCUCAGAGCUCGAGAACAUCUUCGGAUGCAGAGGAGGCAGGCUUCGGUGGCGCGAUAGCGCCAACAUCCUCAACCUCCAAUGCCUCCCACCACAUGAUGAUGCCUGAAGAGCCUUGGUUUUUUG [G77A A95C]"
  polymerase ribozyme fitness (log ratio): -0.839
- query.sequence: "GACCAAUCUGCCCUCAGAGAUCGAGAACAUCUUCGGAUGCAGAGGAGGCAGGCUUCGGUGGCGCGAUAGCGCCAACGUCCUCAACCUCCAAUGCAGCCCACCACAUGAUGAUGCCUGAAGAGCCUUGGUUUUUUG [C20A U96G]"
  polymerase ribozyme fitness (log ratio): -3.33
- query.sequence: "GACCAAUCUGCCUUCAGAGCUCGAGAACAUCUUCGGAUGCAGAGGAGGCAGGCUUCGGUGGCGCGAUAGCGCCAACGUCCUCAACCUCCAAUGCAUCCCACCACAUGAUGAUGCAUGAAGAGCCUUGGUUUUUUG [C13U C115A]"
  polymerase ribozyme fitness (log ratio): -0.378
- query.sequence: "GACCAAUCUGCCCUCAGAGCUCGAGAACAUCUUCGCAUGCAGAGGAGGCAGGCUUCGGUGGCGCGAUAUCGCCAACGUCCUCAACCUCCAUUGAAUCCCACCACAUGAUGAUCCCUGAAGAGCCUUGGUUUUUUG [G36C G69U A91U C94A G113C]"
  polymerase ribozyme fitness (log ratio): -3.07
- query.sequence: "GACCAAUCUGCCCUCAGAGCUCGAGAACAUCUUCGGAUGCAGAGGAGGCAGGCUUCGGUGGCGCGAUAGCGCCAACGUCCUCAAGCUCCAAUGCAUCCCACCACAUGAUGAUGCCUGAAGAGCGUGGGUUUUUUG [C85G C124G U126G]"
  polymerase ribozyme fitness (log ratio): -0.338
- query.sequence: "GACCAAUCUGCCCUCAGAGCUCGAGAACAUCUUCGGAUGCAGAGGAGGCAGGCUUCGGUGGCUCGAUAGCGCCAACGUCCUCAACCUCCAAUUCAUCCCACCACAUGAUGAUGCCUGAAGAGCGUUGGUUUUUUG [G63U G93U C124G]"
  polymerase ribozyme fitness (log ratio): -0.616
